target: GST-Bcl-XL (Homo sapiens); test: TR-FRET binding assay, GST-Bcl-XL with F-Bak peptide probe; details: TR-FRET Binding Affinity, GST-Bcl-XL, F-Bak peptide probe
Sequence (Q07817 whole entry): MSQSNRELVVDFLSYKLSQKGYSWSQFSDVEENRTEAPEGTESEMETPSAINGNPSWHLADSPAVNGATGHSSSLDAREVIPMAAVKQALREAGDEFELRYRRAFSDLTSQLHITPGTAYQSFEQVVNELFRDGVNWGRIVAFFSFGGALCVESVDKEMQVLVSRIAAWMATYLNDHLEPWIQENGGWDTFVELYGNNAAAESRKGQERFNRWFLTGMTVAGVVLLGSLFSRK
pKi: −log10 of the molar value.
Would you kindly list pKi for each of these compounds?

Prompt line: Please report the recorded pKi for `CN1CCC(Nc2ccc(S(=O)(=O)NC(=O)c3ccc(N4CCN(CC5=C(c6ccc(Cl)cc6)CC(C)(C)C5)CC4)cc3Oc3cccc4[nH]ccc34)cc2[N+](=O)[O-])CC1` .
Response line: < 6.18

Prompt line: Please report the recorded pKi for `CC1(C)CCC(CN2CCN(c3ccc(C(=O)NS(=O)(=O)c4cnc(NCC5CCOCC5)c(C#N)c4)c(Oc4ccc5[nH]ccc5c4)c3)CC2)=C(c2ccc(Cl)cc2)C1` .
Response line: < 6.18

Prompt line: Please report the recorded pKi for `O=C(NS(=O)(=O)c1ccc(NCC2CCOCC2)c(S(=O)(=O)C(F)(F)F)c1)c1ccc(N2CCN(Cc3ccccc3-c3ccc(Cl)cc3)CC2)cc1Oc1ccccc1` .
Response line: < 6.18
